system: T47D; assay: cells; settings: Homo sapiens, 72 h
Item-by-item account of IC50
test readout: IC50

| compound | recorded measurement |
| --- | --- |
| CCN(c1ccc(OCCCCCCC(=O)N[C@H](C(=O)N2C[C@H](O)C[C@H]2C(=O)NCc2ccc(-c3scnc3C)cc2)C(C)(C)C)cc1)S(=O)(=O)C1CC2OC1C(c1ccc(O)cc1)=C2c1ccc(O)cc1 (stereo partly drawn) | > 30 µM |
| COc1ccc(N(CC(F)(F)F)S(=O)(=O)C2CC3OC2C(c2ccc(OCCCCCC(=O)N[C@H](C(=O)N4C[C@H](O)C[C@H]4C(=O)NCc4ccc(-c5scnc5C)cc4)C(C)(C)C)cc2)=C3c2ccc(O)cc2)cc1 (stereo partly drawn) | > 30 µM |
| CCN(c1ccc(OCCCCCCCC(=O)N[C@H](C(=O)N2C[C@H](O)C[C@H]2C(=O)NCc2ccc(-c3scnc3C)cc2)C(C)(C)C)cc1)S(=O)(=O)C1CC2OC1C(c1ccc(O)cc1)=C2c1ccc(O)cc1 (stereo partly drawn) | > 30 µM |

###

assay: Selectivity ratio of relative binding affinity for ERalpha (unknown origin) to relative binding affinity to ERbeta (unknown origin)
test readout: Selectivity ratio

| compound | recorded measurement |
| --- | --- |
| CCN(c1ccc(OCCCCC(=O)N[C@H](C(=O)N2C[C@H](O)C[C@H]2C(=O)N[C@@H](C)c2ccc(-c3scnc3C)cc2)C(C)(C)C)cc1)S(=O)(=O)C1CC2OC1C(c1ccc(O)cc1)=C2c1ccc(O)cc1 (stereo partly drawn) | 1.45 |
| CCN(c1ccc(OCCCCCC(=O)N[C@H](C(=O)N2C[C@H](O)C[C@H]2C(=O)N[C@@H](C)c2ccc(-c3scnc3C)cc2)C(C)(C)C)cc1)S(=O)(=O)C1CC2OC1C(c1ccc(O)cc1)=C2c1ccc(O)cc1 (stereo partly drawn) | 1.33 |
| Cc1ncsc1-c1ccc([C@H](C)NC(=O)[C@@H]2C[C@H](O)CN2C(=O)[C@@H](NC(=O)CCCCCOc2ccc(N(CC(F)(F)F)S(=O)(=O)C3CC4OC3C(c3ccc(O)cc3)=C4c3ccc(O)cc3)cc2)C(C)(C)C)cc1 (stereo partly drawn) | 1.6 |

###

Item-by-item account of IC50
system: T47D; experiment: cells; settings: Homo sapiens, 72 h
test readout: IC50 (nM)

| compound | endpoint unit | value comparator | recorded measurement |
| --- | --- | --- | --- |
| COc1ccc(N(CC(F)(F)F)S(=O)(=O)C2CC3OC2C(c2ccc(OCCCCCC(=O)N[C@H](C(=O)N4C[C@H](O)C[C@H]4C(=O)N[C@@H](C)c4ccc(-c5scnc5C)cc4)C(C)(C)C)cc2)=C3c2ccc(O)cc2)cc1 (stereo partly drawn) | nM | > | 30000 |
| Cc1ncsc1-c1ccc([C@H](C)NC(=O)[C@@H]2C[C@@H](O)CN2C(=O)[C@@H](NC(=O)CCCCCOc2ccc(N(CC(F)(F)F)S(=O)(=O)C3CC4OC3C(c3ccc(O)cc3)=C4c3ccc(O)cc3)cc2)C(C)(C)C)cc1 (stereo partly drawn) | nM | = | 1260 |
| CCN(c1ccc(OCCCCCC(=O)N[C@H](C(=O)N2C[C@H](O)C[C@H]2C(=O)NCc2ccc(-c3scnc3C)cc2)C(C)(C)C)cc1)S(=O)(=O)C1CC2OC1C(c1ccc(O)cc1)=C2c1ccc(O)cc1 (stereo partly drawn) | nM | = | 730 |
